target: Human neutrophil elastase (Homo sapiens (Human), UniProt P08246); test: Human Neutrophil Elastase Assay; conditions: substrate MeOSuc-Ala-Ala-Pro-Val-AMC 250 μM, pH 7.5, fluorescence
Sequence (P08246 30-267): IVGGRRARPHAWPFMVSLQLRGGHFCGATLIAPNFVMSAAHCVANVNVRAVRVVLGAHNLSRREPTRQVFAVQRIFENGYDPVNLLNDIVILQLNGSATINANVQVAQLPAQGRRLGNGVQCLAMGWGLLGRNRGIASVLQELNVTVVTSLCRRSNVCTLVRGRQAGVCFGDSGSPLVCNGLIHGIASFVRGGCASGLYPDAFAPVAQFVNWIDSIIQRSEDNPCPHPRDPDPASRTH
Can you tell me log10(IC50) for the items I'm about to list?
Log10 applied to IC50; unit prior to transform: nM.

Give log10(IC50) for all compounds that follow.
1. Cc1c(-c2cccc(C(F)F)c2)c(=O)c(C(=O)NCc2cccc(=O)[nH]2)cn1C(C)C
2. CC[C@H](C)n1cc(C(=O)NCc2nnc(C)o2)c(=O)c(-c2cccc(C(F)F)c2)c1C

[1.86, 1.34]

Give log10(IC50) for all compounds that follow.
1. Cc1c(-c2ccc(F)c(C(F)(F)F)c2)c(=O)c(C(=O)NCc2ccc(S(C)(=O)=O)cc2)cn1C(C)C
2. Cc1c(-c2cccc(C(F)F)c2)c(=O)c(C(=O)NCc2cn3ccccc3n2)cn1C(C)C
3. Cc1cc(CNC(=O)c2cn(C(C)C)c(C)c(-c3cccc(C(F)F)c3)c2=O)ccc1S(C)(=O)=O
4. Cc1nnc(CNC(=O)c2cn(C3CCC3)c(C)c(-c3cccc(C(F)F)c3)c2=O)o1
5. COc1cc(S(C)(=O)=O)ccc1CNC(=O)c1cn(C(C)C)c(C)c(-c2cccc(C(F)(F)F)c2)c1=O

1. 1.28
2. 1.45
3. 0.78
4. 1.74
5. 1.58

====

molecular target: Human neutrophil elastase (Homo sapiens (Human)); test: Human Neutrophil Elastase Assay; details: substrate MeOSuc-Ala-Ala-Pro-Val-AMC 250 μM, pH 7.5, fluorescence
parameter_measured: pIC50
Give bare numbers, as −log10 of the molar value.

Below, each entry is followed by its recorded pIC50 result.
- smiles_notation: "CCn1cc(C(=O)NCc2ccc(S(C)(=O)=O)cc2)c(=O)c(-c2cccc(C(F)F)c2)c1C"
  pIC50: 7.54
- smiles_notation: "Cc1c(-c2cncc(C(F)(F)F)c2)c(=O)c(C(=O)NCc2ccc(S(C)(=O)=O)cc2)cn1C(C)C"
  pIC50: 7.04
- smiles_notation: "Cc1cc(CNC(=O)c2cn(C(C)C)c(C)c(-c3ccnc(C(F)(F)F)c3)c2=O)ccc1S(C)(=O)=O"
  pIC50: 7.57

Now look at this entry.
Fill in the blank: the reported pIC50 of `Cc1c(-c2ccc(F)c(C(F)F)c2)c(=O)c(C(=O)NCc2ccc(S(C)(=O)=O)cc2)cn1C(C)C` is ____.
7.21
